Parameter MIC50: see the listing below.
# Tested on: Human alphaherpesvirus 3
# test-details: Antiviral activity against TK+VZV virus infected HEL cell lines.
# Assay type: functional

C1CCC2(CC1)CCCN2CC12CC3CC(CC(C3)C1)C2; 30 mg/L
C1CCC2(C1)CCCN2CC12CC3CC(CC(C3)C1)C2; 32 mg/L
CCCCN1CCCC1C12CC3CC(CC(C3)C1)C2 (stereo not given); > 50 mg/L
CN1CCCC1C12CC3CC(CC(C3)C1)C2 (stereo not given); > 50 mg/L
C1CCC2(NC1)C1CC3CC(C1)CC2C3 (stereo not given); > 50 mg/L
CNC1(C23CC4CC(CC(C4)C2)C3)CCCC1; > 20 mg/L
C1CNC(C23CC4CC(CC(C4)C2)C3)C1 (stereo not given); > 50 mg/L
C1COCC2(N1)C1CC3CC(C1)CC2C3 (stereo not given); > 50 mg/L
NC1(C23CC4CC(CC(C4)C2)C3)CCCC1; > 20 mg/L
CC1(C)CCCN1CC12CC3CC(CC(C3)C1)C2; > 50 mg/L

Ask: Request the reported MIC50 associated with CC(C)(C)C1CCCN1CC12CC3CC(CC(C3)C1)C2 (stereo not given)
Reply: 35 mg/L

Ask: Subsequent entry: `CN(C)C1(C23CC4CC(CC(C4)C2)C3)CCCC1`
Reply: 30 mg/L
